Experimental Target: UniProt:Q8NB16
Measured Endpoint: pKd
pKd is defined as minus the log10 of a concentration measured in mol/L.

Fill in: UniProt:Q8NB16 pKd for `Nc1nccnc1C(=O)O[C@@H](C(=O)Nc1ccc(F)cc1)c1ccccc1` = 6.64

---

Experimental Target: pseudokinase MLKL-1 (Homo sapiens)
Construct: sub-cloning residues 191 to 471 of the pseudokinase domain of human MLKL cDNA; His6 (thrombin cleavable) (N); made in house; host or cells: Escherichia coli BL21 (DE3)
Sequence (Q8NB16 191-471): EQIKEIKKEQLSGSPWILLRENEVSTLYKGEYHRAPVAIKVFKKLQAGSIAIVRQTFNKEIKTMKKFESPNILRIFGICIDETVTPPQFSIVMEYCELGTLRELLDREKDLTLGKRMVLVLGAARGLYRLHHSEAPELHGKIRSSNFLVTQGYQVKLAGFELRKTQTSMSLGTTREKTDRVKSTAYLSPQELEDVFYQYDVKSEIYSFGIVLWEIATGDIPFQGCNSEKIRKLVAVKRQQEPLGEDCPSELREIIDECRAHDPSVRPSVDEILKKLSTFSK
Experimental Protocol: Differential scanning fluorimetry (thermal shift), MLKL pseudokinase domain
Type: binding
Applied Conditions: 10 μM compound, 1 μM protein, average of triplicates; read-out: MLKL Pseudo-kinase thermal shift at 10 μM
Here, each record is paired with measured ΔTm at 10 µM data.
Give the number; °C is assumed, so skip it.

The following compounds have reported results that may help.
[[record]]
compound = "CN(c1ccc(N)cc1)c1ccnc(Nc2cccc(S(N)(=O)=O)c2)n1 [cpd 3]"
numeric_result = 1.57

[[record]]
compound = "Nc1nccnc1C(=O)O[C@@H](C(=O)Nc1ccc(F)cc1)c1ccccc1 [cpd 4]"
numeric_result = 4

[[record]]
compound = "COc1nccnc1NS(=O)(=O)c1ccc(NC(=O)/C=C/c2ccc([N+](=O)[O-])s2)cc1 [NSA, Necrosulfonamide, reference compound]"
numeric_result = 0.67

[[record]]
compound = "CC(=O)Nc1ccc(N(C)c2ccnc(Nc3cccc(S(N)(=O)=O)c3)n2)cc1 [cpd 2]"
numeric_result = 2.93


Now for a further compound.
ΔTm at 10 µM in this record for C[C@@H](Oc1cc(-c2cnn(C3CCNCC3)c2)cnc1N)c1c(Cl)ccc(F)c1Cl [Crizontinib, reference compound] : 5.63
